- run description: qHTS for Inhibitors of the Functional Ribonucleoprotein Complex (vRNP) of Lassa (LASV) Arenavirus: Viability assay - alamar blue signal for LASV Primary Screen (AID 1347083); further: nearly all actives have a fitted effect of over 80% in size
- particulars: cell viability, alamar blue fluorescence (LASV minigenome counter-screen); series mostly up to 57.5 µM
Records with an inconclusive call do not appear. The source made the active and inactive calls. The call rests on the fitted dose curve; tested in HEK293 reporter line.
endpoint: outcome

| sample smiles | endpoint | reported |
| --- | --- | --- |
| O=C(Nc1ccc(OC(F)(F)F)cc1)c1sccc1NCc1ccnc2ccccc12 | outcome | inactive |
| CC(C)(C)COc1ccc(-n2cc(C(=O)O)cn2)cc1C#N | outcome | inactive |
| COc1cc(Nc2ncc(F)c(Nc3ccc4c(n3)NC(=O)C(C)(C)O4)n2)cc(OC)c1OC | outcome | inactive |

---

- System: HaCat
- run description: Cytotoxic Profiling of Annotated Libraries Using Quantitative High-Throughput Screening (AID 1296008); further: nearly all actives have a fitted effect of over 60% in size
- particulars: Five cell lines viability, CellTiter-Glo ATP luminescence, 48-72 h
Inconclusive results are not listed. Activity calls are given as the source filed them. The call rests on the fitted dose curve; in most records, active means well fitted inhibition curve with a large enough effect; inconclusive means small, poorly fitted or top-dose-only effect; inactive means flat fitted curve, though single readings scatter.
A correct response names exactly one class from true (active), false (inactive)

Asked: Write down the call the test reported for this compound. Item: `CC=C(C)C(=O)O[C@H]1C(C)=C2[C@@H]3OC(=O)[C@@](C)(O)[C@@]3(O)[C@@H](OC(=O)CCC)C[C@](C)(OC(C)=O)[C@@H]2[C@@H]1OC(=O)CCCCCCC`
Given back: true

Asked: Write down the call the test reported for this compound. Item: `CC1=C(O)C(=O)C=C2C1=CC=C1[C@@]2(C)CC[C@@]2(C)[C@@H]3C[C@](C)(C(=O)O)CC[C@]3(C)CC[C@]12C`
Given back: true

Asked: Write down the call the test reported for this compound. Item: `CCCN(CCC)c1c([N+](=O)[O-])cc(S(N)(=O)=O)cc1[N+](=O)[O-]`
Given back: true

Asked: Write down the call the test reported for this compound. Item: `C=CCON=C(C[C@H]1O[C@@H]2O[C@]3(C)CC[C@@H]4[C@H](C)CC[C@@H]([C@H]1C)[C@@]24OO3)[C@H]1O[C@@H]2O[C@]3(C)CC[C@H]4[C@H](C)CC[C@@H]([C@@H]1C)[C@@]24OO3`
Given back: true

Asked: Write down the call the test reported for this compound. Item: `CC[C@@H](C(N)=O)N1CCCC1=O`
Given back: false

Asked: Write down the call the test reported for this compound. Item: `Cc1nc(-c2ccc(-c3ccc(C(=O)N4CCc5cc6c(cc54)C4(CCN(C)CC4)CO6)cc3)c(C)c2)no1`
Given back: false

Asked: Write down the call the test reported for this compound. Item: `CCN1C[C@]2(OC(=O)c3ccccc3NC(C)=O)CC[C@H](OC)[C@@]34[C@H]5CC6[C@@H](OC)C[C@](O)(C(C[C@@H]23)[C@@H]14)[C@@]5(O)[C@@H]6OC`
Given back: false

Asked: Write down the call the test reported for this compound. Item: CCCC[N+]1(C)[C@H]2CC(OC(=O)[C@H](CO)c3ccccc3)C[C@H]1[C@H]1O[C@H]12 (some centres not stated)
Given back: false

Asked: Write down the call the test reported for this compound. Item: CCCCC(CC)COC(=O)c1ccccc1C(=O)OCC(CC)CCCC (configuration not stated)
Given back: false

Asked: Write down the call the test reported for this compound. Item: `O=C1C(I)=CC(=C(c2cc(I)c(O)c(I)c2)c2ccccc2C(=O)O)C=C1I`
Given back: false

Asked: Write down the call the test reported for this compound. Item: COc1ccc2c(c1)CN(C)CC2c1ccc(Cl)c(Cl)c1 (configuration not stated)
Given back: false

Asked: Write down the call the test reported for this compound. Item: `O=[N+]([O-])c1cc([N+](=O)[O-])c2ccccc2c1`
Given back: false

---

- run description: qHTS for identification of novel therapeutic agents for treatment of microphthalmiaassociated transcription factor (MiT) renal cell carcinoma (RCC) (AID 1963991);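 further: curves scaled with 100% = DMSO viability and 0% = empty wells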
- particulars: TFE3-RCC viability, CellTiter-Glo, 48 h; measured here: UOK145 Z-AUC; stronger effect = lower value
Records with an inconclusive call do not appear.
endpoint: z-score
Respond numerically, and do not add a unit to the figure.

Asked: Consider the compound `C[C@@H]1CC[C@H]2[C@@H](C)C(=O)O[C@@H]3O[C@@]4(C)CC[C@H]1[C@]32OO4` . State its measured z-score.
Given back: 0.344

Asked: Consider the compound `CSCC[C@@H](NC(=O)[C@@H](Cc1ccccc1)NC(=O)CNC(=O)CNC(=O)[C@@H](N)Cc1ccc(O)cc1)C(=O)O` . State its measured z-score.
Given back: 1.12

Asked: Consider the compound `C#C[C@]1(O)C=C[C@@H]2[C@@H]3CCC4=CC(=O)CC[C@@H]4[C@H]3CC[C@@]21CC` . State its measured z-score.
Given back: -1.42

Asked: Consider the compound `CC(=O)OCC1=C(C(=O)O)N2C(=O)[C@@H](N)[C@@H]2SC1` . State its measured z-score.
Given back: 1.3

---

- run description: qHTS of pediatric cancer cell lines to identify multiple opportunities for drug repurposing: Primary screen for BT-12 cells (AID 1347101); further: nearly all actives have a fitted effect of over 25% in size
- particulars: BT-12 viability, CellTiter-Glo luminescence, 48 h; series mostly up to 57.3 µM
- Protocol: Drug repurposing or repositioning has been offered as a strategy for drug development in oncology programs. […] [1] Shen, M et al. Quantitative high-throughput phenotypic screening of pediatric cancer cell lines identifies multiple opportunities for drug repurposing. […] Cells were assayed in growth media at a density of 500-1,000 cells/well. […] After a 15 min incubation at room temperature, samples were analyzed for luminescence intensity using a ViewLux High-throughput CCD imager equipped with clear filters.
Records with an inconclusive call do not appear. Active and inactive are the calls of the source. Calls follow the shape of the dose curve; as a rule, active = well fitted cell-killing curve with a large enough effect; inconclusive = small, poorly fitted or top-dose-only effect; inactive = flat fitted curve, though single readings scatter.
A correct response names exactly one class from TRUE for active, FALSE for inactive

Asked: Write down the call the test reported for this compound. Item: `CCc1c(C(=O)C(N)=O)c2c(OCC(=O)O)cccc2n1Cc1ccccc1`
Given back: FALSE

Asked: Write down the call the test reported for this compound. Item: `C[C@]12CCC(=O)C(O)=C1CC[C@@H]1[C@H]3CCC(=O)[C@@]3(C)CC[C@@H]12`
Given back: FALSE

Asked: Write down the call the test reported for this compound. Item: COc1ccc2c(c1)[C@]13CCCCC1C(C2)N(C)CC3 (some centres not stated)
Given back: FALSE

Asked: Write down the call the test reported for this compound. Item: CC(O)CN1CCN(CC(=O)[O-])CCN(CC(=O)[O-])CCN(CC(=O)[O-])CC1.[Gd+3] (configuration not stated)
Given back: FALSE

Asked: Write down the call the test reported for this compound. Item: `Cc1ccc(Cl)c(O)c1`
Given back: FALSE

Asked: Write down the call the test reported for this compound. Item: `COC1=C[C@@H]2[C@@H]3Cc4ccc(OC)c(O)c4[C@]2(CCN3C)CC1=O`
Given back: FALSE

Asked: Write down the call the test reported for this compound. Item: `O=C1CCC[C@@H]2[C@H]3CCCN4CCC[C@@H](CN12)[C@@H]34`
Given back: FALSE

Asked: Write down the call the test reported for this compound. Item: `O=C(N[C@H]1CN2CCC1CC2)c1ccc(Cl)cc1`
Given back: FALSE

Asked: Write down the call the test reported for this compound. Item: `CC(=O)OCC1=C(C(=O)O)N2C(=O)[C@@H](N)[C@@H]2SC1`
Given back: TRUE

Asked: Write down the call the test reported for this compound. Item: `S=C(SSC(=S)N1CCCCC1)N1CCCCC1`
Given back: TRUE

Asked: Write down the call the test reported for this compound. Item: CCCCCCCCCC(CC)c1ccc(S(=O)(=O)O)cc1 (configuration not stated)
Given back: FALSE

Asked: Write down the call the test reported for this compound. Item: `C[C@]12CC[C@H]3[C@@H](CCC4=CC(=O)CC[C@@]43C)[C@H]1CC[C@H]2OC(=O)CCC1CCCC1`
Given back: FALSE

---

- run description: Immunotoxin (SS1P) sensitization/mitigation study. Vehicle arm (DMEM) (AID 1159513); further: potency means the concentration at half of the fitted maximal effect
- particulars: cell viability with vehicle (DMEM); series mostly up to 46.1 µM
Active and inactive are the calls of the source. No rule for the calls is given here.
endpoint: Potency

Asked: Consider the compound `Cc1cc(C=c2sc3nc4ccccc4n3c2=O)c(C)n1-c1ccccc1` . State its measured Potency.
Given back: 9.35 µM (active)

Asked: Consider the compound `CC(C)Oc1cc(Nc2nc(N[C@@H](C)c3ccc(F)cn3)ncc2Cl)[nH]n1` . State its measured Potency.
Given back: 20.9 µM (active)

Asked: Consider the compound `CCN(CC)CCCCNc1ncc2cc(-c3cc(OC)cc(OC)c3)c(NC(=O)NC(C)(C)C)nc2n1` . State its measured Potency.
Given back: 20.9 µM (active)

Asked: Consider the compound `OCCC#Cc1nc(-c2ccc(F)cc2)c(-c2ccncc2)n1CCCc1ccccc1` . State its measured Potency.
Given back: 18.7 µM (active)

---

- Test system: UISO
- run description: qHTS assay to identify novel small-molecules to repurpose for Merkel cell carcinoma treatment (AID 1296009); further: nearly all actives have a fitted effect of over 60% in size; further: potency means the concentration at half of the fitted maximal effect
- particulars: MCC and control cell lines, CellTiter-Glo viability, 72 h; series mostly up to 46 µM
Records with an inconclusive call do not appear. The source made the active and inactive calls. Calls come from the whole dose curve; as a rule, active = well fitted inhibition curve with a large enough effect; inconclusive = small, poorly fitted or top-dose-only effect; inactive = flat fitted curve, though single readings scatter.
endpoint: Potency

| molecule | reported |
| --- | --- |
| CC(=O)O[C@@]12CO[C@H]1C[C@H](O)[C@@]1(C)C(=O)[C@H](O)C3=C(C)[C@@H](O)C[C@@](O)([C@@H](OC(=O)c4ccccc4)[C@@H]21)C3(C)C | 4.18 µM (active) |
| Cc1[nH]nc2ccc(-c3cncc(OC[C@@H](N)Cc4c[nH]c5ccccc45)c3)cc12 | 0.235 µM (active) |
| O=c1[nH]c2ccc(Cl)cc2c(N[C@@H]2CN3CCC2CC3)c1-c1nc2ccccc2[nH]1 | 5.9 µM (active) |
| C=CC(=O)NCNC(=O)C=C | inactive |
| CC(C)(C)c1cc(C=C(C#N)C#N)cc(Br)c1O | inactive |

Asked: Consider the molecule CCCC[N+]1(C)[C@H]2CC(OC(=O)[C@H](CO)c3ccccc3)C[C@H]1[C@H]1O[C@H]12 (some centres not stated) . State its measured Potency.
Given back: inactive

Asked: Consider the molecule `O=S(=O)(O)C(F)(F)C(F)(F)C(F)(F)C(F)(F)F` . State its measured Potency.
Given back: inactive
